assay: soluble on expression in E. coli; label from the status in PepcDB or PDB records
measure_name: soluble on expression in E. coli

Recorded soluble on expression in E. coli, per entry:
>  <query_sequence>
SGRKIGSIVMNANPFTLGHQYLIEQACEQCDWVHLFVVKAENKDFSYADRMAMIKAGSKHLLNLTIHSGSDYIISRATFPSYFIKDQQVVNQSHTALDLSIFRHSIAPALGITHRFVGSEPICTVTRHYNQAMRRWLEEAHDASAPIQVVEIERSQQASQPISASRVRYLLKQFGFAAIADLVPKTTYSYLCQHYAEH

>  <soluble on expression in E. coli>
not soluble

$$$$
>  <query_sequence>
MPVETREISVTAKEDCGIVDITGIVSEEVEKSEIKNGTVTVFCVGSTGAISTMEFESNLSKDISEILDKLIPLNEDYHHHKTWGDFNGGSHLRSFLLGPSLTVPFVEKKLTLGTWQQIVYINFDRIEKVRKIVLQIIGDLLEHHHHHH

>  <soluble on expression in E. coli>
soluble

$$$$
>  <query_sequence>
MAHHHHHHMSFFRMKRRLNFVVKRGIEELWENSFLDNNVDMKKIEYSKTGDAWPCVLLRKKSFEDLHKLYYICLKEKNKLLGEQYFHLQNSTKMLQHGRLKKVKLTMKRILTVLSRRAIHDQCLRAKDMLKKQEEREFYEIQKFKLNEQLLCLKHKMNILKKYNSFSLEQISLTFSIKKIENKIQQIDIILNPLRKETMYLLIPHFKYQRKYSDLPGFISWKKQNIIALRNNMSKLHRLY

>  <soluble on expression in E. coli>
not soluble

$$$$
>  <query_sequence>
MGSDKIHHHHHHMPATFAHCLLAREAMERFGKSKLFPGVLKTKNHFVVMGATGPDYPYLTDVMKYGVLHIGHNWANRMHYENIDGFILEGIKKLSSMNKTSEEFKNCLAWFSGYVSHVVADSYLHPVVNSTVHGIYLFTNEKHGRCELVQDIYIFKKMTDTDICAAAARDRNSFGYLSILDDCSDPQDLDKIHPHIRVFWSELLKAAHPYASDYFGDLNLDEWHKNYKGRVDFAADSQSIFRHVLDIANAPRYVPWTASSISKEERSKYIDNVETPRGTKQSYDTLFSLVADQIAATWNALFPYIKNGQVPPATLVKDWNLDTGVDESKIDFWKEA

>  <soluble on expression in E. coli>
not soluble

$$$$
>  <query_sequence>
MAHHHHHHSLSQVILDLQLACENHAGLPDEAQFQRWLDGVIPQFQEEAEVTIRLVDEAESHDLNLTYRGKDKPTNVLSFPFEAPPGIEMPLLGDLIICRQVVEQEAQEQSKPLEAHWAHMVVHGSLHLLGYDHIDDDEAEEMESLETEIMLAMGYEDPYIAEKIAE

>  <soluble on expression in E. coli>
soluble

$$$$

Query: soluble on expression in E. coli; subject: MGSDKIHHHHHHMSYLKISDTIVETFRFIHYEQSNFLNRLHGGDMLFFLVETGMISASKVAMGTTLLASLDDVVFKKPVRLGDIVKVRAKTVYIGNTSLEVEVRAFVRDEEVVSAYATYVKVDDLLRPTPVNVKIMAESEDDKRKIDEAKKRRENRLSKIVNRQKMRFYVDDITDGLRYRISNVIHVSPELTYDGRIMSAGKLLKLMDDLGGIICLRYLDHNSSNLYDNSFNAVVTVAVKGLAFYSPIRLNDIILIRAGLVYVGNTSADILINVVREDLNGAKEHVATAYFTYVRVDKDGKPIKIPEYTPVTEREKRLYEEALTRRGLRK
not soluble
